Source listed as patent US8268859B2.

studyTarget: human glucocorticoid receptor (GR) complex (Homo sapiens, UniProt P04150)
Construct: made in house; host or cells: insect expression system (baculovirus lysate)
Sequence (P04150 1-777): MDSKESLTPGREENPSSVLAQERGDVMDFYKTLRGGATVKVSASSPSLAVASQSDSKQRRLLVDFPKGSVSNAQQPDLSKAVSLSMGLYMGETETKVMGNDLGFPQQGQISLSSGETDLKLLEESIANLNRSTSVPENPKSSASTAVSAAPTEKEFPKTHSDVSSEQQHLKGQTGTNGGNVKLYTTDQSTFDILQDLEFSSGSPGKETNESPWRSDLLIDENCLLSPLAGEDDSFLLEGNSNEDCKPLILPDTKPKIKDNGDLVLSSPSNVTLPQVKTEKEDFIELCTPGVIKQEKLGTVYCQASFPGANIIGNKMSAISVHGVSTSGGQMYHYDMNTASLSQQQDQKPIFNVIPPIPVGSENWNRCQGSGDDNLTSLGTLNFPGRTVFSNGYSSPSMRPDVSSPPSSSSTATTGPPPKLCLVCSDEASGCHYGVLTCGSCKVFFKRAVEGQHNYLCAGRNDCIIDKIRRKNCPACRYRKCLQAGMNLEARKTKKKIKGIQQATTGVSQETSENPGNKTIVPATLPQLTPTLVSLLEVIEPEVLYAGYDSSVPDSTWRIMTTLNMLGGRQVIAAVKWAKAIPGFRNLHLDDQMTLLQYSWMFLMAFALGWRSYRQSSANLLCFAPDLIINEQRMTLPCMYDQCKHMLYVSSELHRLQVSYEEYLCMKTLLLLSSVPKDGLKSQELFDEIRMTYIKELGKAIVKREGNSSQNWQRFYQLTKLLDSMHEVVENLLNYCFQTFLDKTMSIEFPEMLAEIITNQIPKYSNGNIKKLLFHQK
assayMethodText: Glucocorticoid receptor fluorescence polarization competitive binding assay;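 also: GR complex expressed in an insect system, wells lacking compound give full signal, excess unlabeled dexamethasone defines the blank, IC50 from logistic curve fit of polarization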
experimentalConditions: Table 1; competition with TAMRA-labeled dexamethasone; read-out: GR IC50
Record form. Attribute: pIC50. Fill in for each entry.
Answers are plain numbers, as −log10 of the molar value.

Reference set, count: 5
- molecule: "CC(C)(C[C@@](O)(Cc1cc2cc(S(C)(=O)=O)ncc2[nH]1)C(F)(F)F)c1cc(Cl)cc2c1OCC2 [drawing 3]"
  pIC50: 8.22
- molecule: "CC(C)S(=O)(=O)c1cc2cc(CC(O)(CC(C)(C)c3cc(Cl)ccc3S(C)(=O)=O)C(F)(F)F)[nH]c2cn1 (stereo not drawn)"
  pIC50: 7.77
- molecule: "CC(C)(CC(O)(Cc1cc2cc(S(C)(=O)=O)ncc2[nH]1)C(F)(F)F)c1cccc(F)c1S(C)(=O)=O (stereo not drawn)"
  pIC50: 7.21
- molecule: "CCS(=O)(=O)c1cc2cc(CC(O)(CC(C)(C)c3cccc(F)c3S(C)(=O)=O)C(F)(F)F)[nH]c2cn1 (stereo not drawn)"
  pIC50: 7.26
- molecule: "CC(C)(CC(O)(Cc1cc2cc(S(C)(=O)=O)ncc2[nH]1)C(F)(F)F)c1ccccc1Br (stereo not drawn)"
  pIC50: 8.15

Can you give me pIC50 for all of these, one by one?
1. CCCS(=O)(=O)c1cc2cc(CC(O)(CC(C)(C)c3cc(F)ccc3S(C)(=O)=O)C(F)(F)F)[nH]c2cn1 (stereo not drawn)
2. CC(C)(CC(O)(Cc1cc2cc(S(C)(=O)=O)ncc2[nH]1)C(F)(F)F)c1cc(F)ccc1Br (stereo not drawn)
3. CC(C)(CC(O)(Cc1cc2cc(S(C)(=O)=O)ncc2[nH]1)C(F)(F)F)c1cc(F)ccc1O (stereo not drawn)
4. CCS(=O)(=O)c1cc2cc(CC(O)(CC(C)(C)c3cc(C)ccc3C(N)=O)C(F)(F)F)[nH]c2cn1 (stereo not drawn)

[7.89, 8.22, 7.60, 7.42]
